Entry source: patent US12421212B2

Target: IL-17A/A (Homo sapiens, UniProt Q16552)
Construct: purchased Genscript Z03228
Sequence (Q16552 24-155): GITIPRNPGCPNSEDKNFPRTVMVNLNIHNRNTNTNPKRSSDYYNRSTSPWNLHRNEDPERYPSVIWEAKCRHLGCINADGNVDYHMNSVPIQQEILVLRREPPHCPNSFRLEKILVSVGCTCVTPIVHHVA
Test: IL-17A/A HEK-Blue Cell Assay
Type: cell-based
Conditions: HEK-Blue IL-17A reporter cell line, SEAP readout at A630, 20 hours incubation with IL-17A/A; top concentration 10 uM, 1 uM or 0.3 uM; read-out: IL-17A/A inhibition (pIC50) (converted)
Readout type: IC50

>>> result("CCC(=O)N[C@@H](C(=O)N1CCN(C)CC1)[C@@H](C)c1ccc(NC(=O)[C@@H](NC(=O)C(F)(F)c2ccc3c(c2)OCO3)C2CCCCC2)c(F)c1")
"10 to 100 nM"
>>> result("COc1ccc(C(F)(F)C(=O)N[C@H](C(=O)Nc2ccc([C@H](C)[C@@H](NC(=O)c3cnsc3)C(=O)N3CCN(C)CC3)cc2F)[C@H]2CC[C@H](C)CC2)cn1")
"10 to 100 nM"
>>> result("CCC(=O)N[C@@H](C(=O)NCC1CCC1)[C@@H](C)c1ccc(NC(=O)[C@@H](NC(=O)c2ccnn2CC)[C@H]2CC[C@H](C)CC2)c(F)c1")
"10 to 100 nM"
>>> result("CCC(=O)N[C@@H](C(=O)N1CCN(C)[C@@H](C)C1)[C@@H](C)c1ccc(NC(=O)[C@@H](NC(=O)c2ccnn2CC)[C@H]2CC[C@H](C)CC2)c(F)c1")
"< 10 nM"
>>> result("CCc1nonc1C(=O)N[C@H](C(=O)Nc1ccc([C@H](C)[C@@H](NC(=O)C(C)(F)F)C(=O)N2CCN(C)[C@H](C)C2)cc1F)[C@H]1CC[C@H](C)CC1")
"10 to 100 nM"

System IL-17A/A (Homo sapiens, UniProt Q16552). Read-out IC50. Item CCC(=O)N[C@@H](C(=O)N1CCN[C@H](C)C1)[C@@H](C)c1ccc(NC(=O)[C@@H](NC(=O)c2nonc2CC)[C@H]2CC[C@H](C)CC2)c(F)c1 . Report value.
100 to 10000 nM
